Entries and their cell viability
Tested on: HepG2
ASSAY_SUMMARY: cell viability relative to DMSO; higher = less toxic
SETUP_CONDITIONS: 72 h; 1000 nM

>  <COMPOUND>
Cc1c(N)c(=O)n(-c2ccccc2)n1C [ampyrone]

>  <VALUE_UNIT>
%

>  <cell viability>
111

$$$$
>  <COMPOUND>
CC(=O)N1CCC(C(=O)N(CCCN2CCC(Cc3ccc(C(N)=O)cc3)CC2)c2ccc(C)c(Cl)c2)CC1 [TAK-220]

>  <VALUE_UNIT>
%

>  <cell viability>
94.5

$$$$
>  <COMPOUND>
O=C1C2CC=CCC2C(=O)N1SC(Cl)(Cl)Cl (configuration not stated) [captan]

>  <VALUE_UNIT>
%

>  <cell viability>
86.3

$$$$
>  <COMPOUND>
C[C@@H](CCCCC(=O)Nc1ccc(C(F)(F)F)cc1)NCCc1c[nH]cn1 [HTMT]

>  <VALUE_UNIT>
%

>  <cell viability>
104

$$$$
>  <COMPOUND>
CCCCCN(C)CCC(O)(P(=O)(O)O)P(=O)(O)O [ibandronate]

>  <VALUE_UNIT>
%

>  <cell viability>
106

$$$$
>  <COMPOUND>
COc1cc(N2CCC(N)CC2)ccc1Nc1ncc(Cl)c(-c2c[nH]c3ccccc23)n1 [AZD3463]

>  <VALUE_UNIT>
%

>  <cell viability>
41.6

$$$$
>  <COMPOUND>
CC(=O)Nc1c(I)c(C(=O)O)c(I)c(N(C)C(C)=O)c1I [metrizoic-acid]

>  <VALUE_UNIT>
%

>  <cell viability>
96.6

$$$$
>  <COMPOUND>
CCCCNc1ncc2c(-c3ccc(CN4CCN(C)CC4)cc3)cn([C@H]3CC[C@H](O)CC3)c2n1 [UNC2025]

>  <VALUE_UNIT>
%

>  <cell viability>
54.7

$$$$
>  <COMPOUND>
COc1cc(-n2cnc3cc(-c4ccc(Cl)cc4)sc3c2=O)ccc1OCCN1CCCC1

>  <VALUE_UNIT>
%

>  <cell viability>
93.9

$$$$
>  <COMPOUND>
COc1ccc(NC(=O)c2ccc(-c3ccc(-c4noc(C)n4)cc3C)cc2)cc1OCCN(C)C

>  <VALUE_UNIT>
%

>  <cell viability>
90.1

$$$$
>  <COMPOUND>
O=S(=O)(NCCNC/C=C/c1ccc(Br)cc1)c1cccc2cnccc12 [H-89]

>  <VALUE_UNIT>
%

>  <cell viability>
102

$$$$
>  <COMPOUND>
CCN(CC)C(=O)/C(C#N)=C/c1cc(O)c(O)c([N+](=O)[O-])c1 [entacapone]

>  <VALUE_UNIT>
%

>  <cell viability>
92.2

$$$$
>  <COMPOUND>
Cc1cccc(Oc2nc3c(C)cccn3c(=O)c2/C=C(\C#N)c2nc3ccccc3s2)c1

>  <VALUE_UNIT>
%

>  <cell viability>
94.6

$$$$
>  <COMPOUND>
CO[C@@H]1[C@@H](O[C@@H]2O[C@H](C)[C@@H](O[C@H]3C[C@@](C)(O)[C@@H](OC(=O)CC(C)C)[C@H](C)O3)[C@H](N(C)C)[C@H]2O)[C@@H](CC=O)C[C@@H](C)[C@@H](O)/C=C/C=C/C[C@@H](C)OC(=O)C[C@H]1OC(C)=O [josamycin]

>  <VALUE_UNIT>
%

>  <cell viability>
95

$$$$
>  <COMPOUND>
COc1ccc2[nH]c(I)c(CCNC(C)=O)c2c1 [2-iodomelatonin]

>  <VALUE_UNIT>
%

>  <cell viability>
96.5

$$$$
>  <COMPOUND>
O=C(Nc1ccc(S(=O)(=O)Nc2ccccc2Cl)c(Cl)c1)c1ccccn1

>  <VALUE_UNIT>
%

>  <cell viability>
101

$$$$
>  <COMPOUND>
O=C(O)C[C@H](O)C[C@H](O)/C=C/c1c(C2CC2)nc2ccccc2c1-c1ccc(F)cc1 [pitavastatin]

>  <VALUE_UNIT>
%

>  <cell viability>
95.7

$$$$
>  <COMPOUND>
Cc1oc(=O)oc1COC(=O)C1=C([C@H]2CCCO2)S[C@@H]2[C@@H]([C@@H](C)O)C(=O)N12 [faropenem-medoxomil]

>  <VALUE_UNIT>
%

>  <cell viability>
95.1

$$$$
>  <COMPOUND>
CCC1(C)CC(=O)NC(=O)C1 [bemegride]

>  <VALUE_UNIT>
%

>  <cell viability>
90.8

$$$$
>  <COMPOUND>
C/C1=C/C[C@@H](/C(C)=C/c2csc(C)n2)OC(=O)C[C@H](O)C(C)(C)C(=O)[C@H](C)[C@@H](O)[C@@H](C)CCC1 [epothilone-D]

>  <VALUE_UNIT>
%

>  <cell viability>
15.8

$$$$
>  <COMPOUND>
C[C@H](Oc1cc(-c2cnn(C3CCNCC3)c2)cnc1N)c1c(Cl)ccc(F)c1Cl [crizotinib-(S)]

>  <VALUE_UNIT>
%

>  <cell viability>
90.9

$$$$
>  <COMPOUND>
CCC(C)CCCC(=O)N[C@@H](CCN)C(=O)N[C@H](C(=O)N[C@@H](CCN)C(=O)N[C@H]1CCNC(=O)[C@H]([C@@H](C)O)NC(=O)[C@H](CCN)NC(=O)[C@H](CCN)NC(=O)[C@H](CC(C)C)NC(=O)[C@@H](CC(C)C)NC(=O)[C@H](CCN)NC1=O)[C@@H](C)O (some centres not stated) [colistin]

>  <VALUE_UNIT>
%

>  <cell viability>
103

$$$$
